The values you see were collected from patent US4000160A.

Here the recorded MIC is given for each entry.
Tested on: Staphylococcus aureus 209
Test: in vitro antibacterial test (modified Autotiter method), minimum inhibitory concentration
Assay type: cell-based
Settings: organism A, Staphylococcus aureus 209; in vitro; read-out: minimum inhibitory concentration (MIC)
experimental_endpoint: MIC (µg/mL)

• O=C(c1cc(Cl)c(Cl)[nH]1)c1ccc(O)cc1O = 3.9
• COc1ccc(OC)c(C(=O)c2cc(Br)c(Br)[nH]2)c1 = 31.3
• COc1cccc(C(=O)c2cc(Br)c(Br)[nH]2)c1 = 250
